# Assay type: in vivo, human
# Recorded conditions: male, human, plasma, oral
Define the label as 1.0 when AUC(0-inf) is strictly less than 200 ng·h/mL and as 0.0 in all remaining cases.

Task item: Does the reported AUC(0-inf) of Cc1ncc2n1-c1ccc(Cl)cc1C(c1ccccc1F)=NC2 [Midazolam, midazolam] stay below 200 ng·h/mL?
Reply: 1.0

Task item: Dear reviewer, please state whether COc1ccc2[nH]c([S+]([O-])Cc3ncc(C)c(OC)c3C)nc2c1 (centres unmarked) [Omeprazole, omeprazole] has AUC(0-inf) strictly beneath 200 ng·h/mL.
Reply: 1.0

Task item: State whether 200 ng·h/mL exceeds AUC(0-inf) recorded for CC(C(=O)O)c1ccc(-c2ccccc2)c(F)c1 (centres unmarked) [Flurbiprofen, flurbiprofen] .
Reply: 0.0

Task item: Criterion: AUC(0-inf) strictly below 200 ng·h/mL. Is it met by COCCc1ccc(OCC(O)CNC(C)C)cc1 (centres unmarked) [Metoprolol, metoprolol] ?
Reply: 1.0

Task item: Is it true that AUC(0-inf) reported for Cn1c(=O)c2c(ncn2C)n(C)c1=O [Caffeine, caffeine] is less than 200 ng·h/mL?
Reply: 0.0

---

Field: AUC(0-inf). Provide a value for each of the compounds that follow.
# Type: in vivo, human
# Recorded conditions: male, human, plasma, oral
Reply numerically in ng·h/mL, unit not repeated.

Task item: Endpoint output: AUC(0-inf) of CC(C(=O)O)c1ccc(-c2ccc(O)cc2)c(F)c1 (stereo not drawn) [4′‐hydroxyflurbiprofen] . Value?
Reply: 726

Task item: I have this compound here, `Cn1c(=O)[nH]c2ncn(C)c2c1=O` , and I need its recorded AUC(0-inf).
Reply: 4680

Task item: Find the recorded AUC(0-inf) belonging to `O=C1Nc2ccc(Cl)cc2[C@@](C#CC2CC2)(C(F)(F)F)O1` and report it.
Reply: 3980
